Provenance of the data: the supplement of paper PMC12764529

Experiment: folding stability dG unfold from trypsin proteolysis; higher = more stable
As shown below, each of these sequences has a reported folding stability dG unfold value.
# unit: kcal/mol | format: bare number

Answered cases to consult:
| Macromolecule Sequence | Measurement Unit | Assay Result |
| --- | --- | --- |
| SEEIAKKIADELKKAGYEVVKVEVTYDKETKKVTIKIVVKDKKTNEYYKITIKLNEETGEIVEVKIEKLPSA [r9_814_TrROS_Hall] | kcal/mol | 2.96 |
| SAGGSAGGSAGGSMELIPTPEDTVTVVETTPVAPTPNGTPVPATVTTTTLPKEEVEAAASAGGSAGGSAGGS [r4_238_JUSTAS] | kcal/mol | 2.71 |
| SAGMKVTTKTYTLTLTLPDGTRELKVTFTTPPDGYTATITDPNSSKVITLPFSSEEEARSAIEAIAARLSAG [r5_480_JUSTAS] | kcal/mol | 2.48 |
| SMQINVERNPENGTVIIHIPMEDMPPENIREILKDLPPNNKRVTIHMHDPPYMRWLKELAKEKGFPIKITSA [r9_919_TrROS] | kcal/mol | 0.824 |
| SAGGMVRITRDEDGILRVELFVEGTPEEAEEEAARLVRLLEELGFEEVRVEREPFGDGVVVTIEAKASAGGS [r8_113_TrMRF] | kcal/mol | 2.55 |
| SAGGSAGGSAGGKKTITVTVKINGKTYRVEIKYDEKTKKVTIKIEVNGKKYEFEFELKDSAGGSAGGSAGGS [r10_438_TrROS_Hall] | kcal/mol | 4.73 |

# next sequence below
Briefly, folding stability dG unfold measured for SAGGSAGGSMPFKIDVEVERHPEDNMYQVEITFPGNREIPIMVDDPSDPEKAKNIAKEFAKQLSAGGSAGGS [r12_1012_TrROS] : 0.13
